Molecular target: Trypsin (Homo sapiens, UniProt P07477+P07478+P35030)
Experiment: Inhibitory activity against human trypsin (using Chromozym TH as the substrate)
Format: protein assay
PARAMETER MEASURED: Ki (nM)
Provide only the numeric value, understood in nM.

[[record]]
compound = "Cc1ccc(S(=O)(=O)NC(=O)N2CCCC2C(=O)Nc2ccc(S(=O)(=O)N=C(N)N)cc2)cc1 (stereo unspecified)"
units_text = "nM"
measured_result = 1445

[[record]]
compound = "N=C(N)NNS(=O)(=O)c1cccc(N)c1"
units_text = "nM"
measured_result = 1400

[[record]]
compound = "N=C(N)NNS(=O)(=O)c1cc(Cl)cc(Cl)c1O"
units_text = "nM"
measured_result = 1100

[[record]]
compound = "N=C(N)NNS(=O)(=O)c1ccc(C(=O)O)cc1"
units_text = "nM"
measured_result = 1335


# query: Ki | item COC(=N)NS(=O)(=O)c1ccc(NC(=O)[C@H](Cc2c[nH]cn2)NC(=O)CCNC(=O)NS(=O)(=O)c2ccc(C)cc2)cc1 | system: Trypsin (Homo sapiens, UniProt P07477+P07478+P35030)
1420

Proceed to COc1ccc(S(=O)(=O)NN=C(N)N)cc1N
1100

###

Target: Trypsin (Homo sapiens, UniProt P07477+P07478+P35030)
Test: Inhibitory activity against human trypsin (using Chromozym TH as the substrate)
Type: protein assay
PARAMETER MEASURED: Ki (nM)
Express the result in nM but write the number alone.

[[record]]
compound = "COC(=N)NS(=O)(=O)c1ccc([N+](=O)[O-])cc1"
measured_result = 1235

[[record]]
compound = "COC(=N)NS(=O)(=O)c1ccc([N+](=O)[O-])c(Cl)c1"
measured_result = 1200

[[record]]
compound = "N=C(N)NS(=O)(=O)c1cccc(C(=O)O)c1"
measured_result = 1500

[[record]]
compound = "N=C(N)NS(=O)(=O)c1ccccc1[N+](=O)[O-]"
measured_result = 1850

[[record]]
compound = "COC(=N)NS(=O)(=O)c1ccc(NC(=O)CNC(=O)[C@@H]2CCCN2C(=O)NS(=O)(=O)c2ccc(C)cc2)cc1"
measured_result = 1540

[[record]]
compound = "N=C(N)NNS(=O)(=O)c1cccc([N+](=O)[O-])c1"
measured_result = 1235


Report Ki for COc1ccc(S(=O)(=O)N=C(N)N)cc1N please.
1080

Also need N=C(N)NS(=O)(=O)c1ccc(NC(=O)C2CCCN2C(=O)[C@H](Cc2ccccc2)NC(=O)OCc2ccccc2)cc1 (stereo not given in full) , thanks.
1360

And what about the compound N=C(N)NS(=O)(=O)c1ccc(Br)cc1 ?
1230

And COC(=N)NS(=O)(=O)c1ccc(NC(=O)C2CCCN2C(=O)[C@H](Cc2ccccc2)NC(=O)OCc2ccccc2)cc1 (stereo not given in full) ?
1435

###

Molecular target: Trypsin (Homo sapiens, UniProt P07477+P07478+P35030)
Experiment: Inhibitory activity against human trypsin (using Chromozym TH as the substrate)
Assay type: protein assay
PARAMETER MEASURED: Ki (nM)
# unit: nM | format: bare number

[[record]]
compound = "N=C(N)NS(=O)(=O)c1c(F)c(F)c(F)c(F)c1F"
target_or_system = "Trypsin (Homo sapiens, UniProt P07477+P07478+P35030)"
parameter_measured = "Ki"
measured_result = 1350


Reported Ki, compound N=C(N)NS(=O)(=O)c1ccc(I)cc1 : ____
1350

What do you get for COC(=N)NS(=O)(=O)c1ccc(C)cc1 ?
2150

###

Target: Trypsin (Homo sapiens, UniProt P07477+P07478+P35030)
Assay: Inhibitory activity against human trypsin (using Chromozym TH as the substrate)
Assay type: protein assay
Ki for assorted compounds
Return type: number; implicit unit nM.

As a guide, the following entries are already answered.
[[record]]
smiles_string = "COC(=N)NS(=O)(=O)c1cc(Cl)cc(Cl)c1O"
measured_result = 1550

[[record]]
smiles_string = "Cc1cc(C)c(S(=O)(=O)N=C(N)N)c(C)c1"
measured_result = 1450

[[record]]
smiles_string = "Cc1cc(C)c(S(=O)(=O)NN=C(N)N)c(C)c1"
measured_result = 1100


Item N=C(N)NNS(=O)(=O)c1ccccc1C(=O)O has what recorded Ki?
1400

Then this compound: N=C(N)NS(=O)(=O)c1ccc(C(=O)O)cc1
1235

Also N=C(N)NS(=O)(=O)c1ccc(F)cc1 ?
1090

Follow-up item: Cc1ccc(S(=O)(=O)NN=C(N)N)cc1
1775

###

// reported Ki for each item listed
Target: Trypsin (Homo sapiens, UniProt P07477+P07478+P35030)
Assay: Inhibitory activity against human trypsin (using Chromozym TH as the substrate)
Format: protein assay
Hi! Could you send only the number? It should be in nM, unit omitted.

Which Ki is reported for this compound? Cc1ccc(S(=O)(=O)NC(=O)NCCC(=O)N[C@@H](Cc2c[nH]cn2)C(=O)Nc2ccc(S(=O)(=O)N=C(N)N)cc2)cc1
1350

Try this compound next: COC(=N)NS(=O)(=O)c1ccc(I)cc1
1415

Now the same for N=C(N)NNS(=O)(=O)c1ccc(I)cc1
1300

###

Each entry below carries its reported Ki.
Target: Trypsin (Homo sapiens, UniProt P07477+P07478+P35030)
Assay: Inhibitory activity against human trypsin (using Chromozym TH as the substrate)
Format: protein assay
Return type: number; implicit unit nM.

The examples below pair each entry with its known result.
[[record]]
smiles_string = "N=C(N)NS(=O)(=O)c1ccccc1C(=O)O"
measured_result = 1445

[[record]]
smiles_string = "Cc1ccc(S(=O)(=O)NC(=O)NCC(=O)N[C@@H](Cc2c[nH]cn2)C(=O)Nc2ccc(S(=O)(=O)N=C(N)N)cc2)cc1"
measured_result = 1455


# evaluate next
Give its Ki value. Item: COC(=N)NS(=O)(=O)c1ccc(NC(C)=O)cc1
1345

###

Target: Trypsin (Homo sapiens, UniProt P07477+P07478+P35030)
Test: Inhibitory activity against human trypsin (using Chromozym TH as the substrate)
Assay type: protein assay
We begin with a simple list: items and their reported Ki.
Quick note: give the figure in nM, leave out the unit.

// known answers, use as guide
[[record]]
molecule = "COC(=N)NS(=O)(=O)c1ccc2ccccc2c1"
measured_result = 1445

[[record]]
molecule = "N=C(N)NNS(=O)(=O)c1ccc([N+](=O)[O-])cc1"
measured_result = 990

[[record]]
molecule = "N=C(N)NS(=O)(=O)c1ccc(NC(=O)[C@@H](Cc2ccccc2)NC(=O)OCc2ccccc2)cc1"
measured_result = 1285


Let's switch to this molecule now.
What does the record list as Ki for N=C(N)NS(=O)(=O)C(F)(F)F ?
1275

###

Target: Prothrombin (Homo sapiens)
Lab note: compare Ki with 200 nM, writing Condition met if less and Condition not met if equal or more.

Field: example entries. Status: answers known.
[[record]]
compound = "N=C(N)NNS(=O)(=O)c1ccc([N+](=O)[O-])cc1"
group_label = "Condition met"

[[record]]
compound = "N=C(N)NS(=O)(=O)c1c(Br)c(Br)c(Br)c(Br)c1C(=O)O"
group_label = "Condition not met"

[[record]]
compound = "COC(=N)NS(=O)(=O)c1ccc(OC)c(N)c1"
group_label = "Condition met"

[[record]]
compound = "CN(C)c1ccc(/N=N/c2ccc(S(=O)(=O)NN=C(N)N)cc2)cc1"
group_label = "Condition met"

[[record]]
compound = "COC(=N)NS(=O)(=O)c1ccccc1[N+](=O)[O-]"
group_label = "Condition not met"

[[record]]
compound = "COC(=N)NS(=O)(=O)c1ccc(NC(=O)CNC(=O)[C@@H]2CCCN2C(=O)NS(=O)(=O)c2ccc(C)cc2)cc1"
group_label = "Condition met"


Next:
Determine whether this compound shows Ki lower than 200 nM (ties excluded): N=C(N)NNS(=O)(=O)c1cccc([N+](=O)[O-])c1
Condition met

###

Biological target: Trypsin (Homo sapiens, UniProt P07477+P07478+P35030)
Assay: Inhibitory activity against human trypsin (using Chromozym TH as the substrate)
Assay type: protein assay
PARAMETER MEASURED: Ki (nM)
Field: numeric (nM). Do not append units.

Solved entries (count: 3):
[[record]]
compound = "COC(=N)NS(=O)(=O)C(F)(F)C(F)(F)C(F)(F)C(F)(F)F"
target_or_system = "Trypsin (Homo sapiens, UniProt P07477+P07478+P35030)"
measured_result = 2180

[[record]]
compound = "N=C(N)NNS(=O)(=O)c1ccc(Br)cc1"
target_or_system = "Trypsin (Homo sapiens, UniProt P07477+P07478+P35030)"
measured_result = 1215

[[record]]
compound = "COc1ccc(S(=O)(=O)N=C(N)N)cc1"
target_or_system = "Trypsin (Homo sapiens, UniProt P07477+P07478+P35030)"
measured_result = 1320


Quick check: Ki of COC(=N)NS(=O)(=O)c1c(F)c(F)c(F)c(F)c1F ?
1425

Do the same for COC(=N)NS(=O)(=O)c1ccc(Cl)cc1 please
1325

# repeat for COC(=N)NS(=O)(=O)c1ccccc1[N+](=O)[O-]
2340

Check N=C(N)NS(=O)(=O)c1ccc(C(=N)N)cc1 too.
450

// same read-out, input: N=C(N)NNS(=O)(=O)c1c(F)c(F)c(F)c(F)c1F
1350

Same for N=C(N)NS(=O)(=O)c1c(Br)c(Br)c(Br)c(Br)c1C(=O)O
1250

Next up: COC(=N)NS(=O)(=O)c1cccc2ccccc12
1425

Can you check N=C(N)NNS(=O)(=O)c1ccc(NC(=O)C2CCCN2C(=O)[C@H](Cc2ccccc2)NC(=O)OCc2ccccc2)cc1 (stereo partly specified) next?
1400

Value source: ChEMBL document CHEMBL1132933
